SUBJECT OF TEST: human notum pectinacetyltransferase (Homo sapiens)
Construct: made in house; unpurified conditioned medium used
EXPERIMENTAL PROTOCOL: Binding assay (OPTS esterase substrate, fluorimetric)
Assay type: biochemical
STATED CONDITIONS: class symbols
pIC50: −log10 of the molar value.
READOUT LABEL: pIC50

{"COMPOUND": "NC(=O)c1cc2c(s1)-c1c(F)cc(F)cc1OC2", "pIC50": "> 7.30"}

Q: Entry COC(=O)c1cc2c(s1)-c1ccccc1CC2 , system human notum pectinacetyltransferase (Homo sapiens): what pIC50 was measured?
A: > 6.00

Q: Please tell me: pIC50 of Cc1cc(F)c2c(c1)-c1sc(C(N)=O)cc1CC2 , system human notum pectinacetyltransferase (Homo sapiens)?
A: > 7.30

Q: Lookup: pIC50 / human notum pectinacetyltransferase (Homo sapiens) / COC(=O)C1CCN(C(=O)c2cc3c(s2)-c2cc(F)cc(F)c2SC3)C1 (stereo not drawn)
A: > 6.00

Q: pIC50 of O=C(O)c1cc2c(s1)-c1ccc(Cl)c(Cl)c1OCC2 on human notum pectinacetyltransferase (Homo sapiens)?
A: > 7.30

Q: Return pIC50 measured with human notum pectinacetyltransferase (Homo sapiens) given this compound: O=C(O)c1cc2c(s1)-c1ccc(Cl)c(F)c1SC2
A: > 7.30

Q: // fetch human notum pectinacetyltransferase (Homo sapiens) pIC50 for CC1(C)Cc2cc(C(N)=O)sc2-c2ccc(Cl)cc21
A: > 6.00

Q: # value lookup — system human notum pectinacetyltransferase (Homo sapiens), readout pIC50, item CC1Cc2cc(C(N)=O)sc2-c2cc(F)cc(F)c21 (stereo not drawn)
A: > 7.30

Q: What pIC50 appears in the records for this compound with human notum pectinacetyltransferase (Homo sapiens)? NC(=O)c1cc2c(s1)-c1c(cc(F)c(F)c1F)OC2
A: > 7.30

* * *

SUBJECT OF TEST: human notum pectinacetyltransferase (Homo sapiens, UniProt Q6P988)
Construct: made in house; unpurified conditioned medium used
Sequence (Q6P988 20-496): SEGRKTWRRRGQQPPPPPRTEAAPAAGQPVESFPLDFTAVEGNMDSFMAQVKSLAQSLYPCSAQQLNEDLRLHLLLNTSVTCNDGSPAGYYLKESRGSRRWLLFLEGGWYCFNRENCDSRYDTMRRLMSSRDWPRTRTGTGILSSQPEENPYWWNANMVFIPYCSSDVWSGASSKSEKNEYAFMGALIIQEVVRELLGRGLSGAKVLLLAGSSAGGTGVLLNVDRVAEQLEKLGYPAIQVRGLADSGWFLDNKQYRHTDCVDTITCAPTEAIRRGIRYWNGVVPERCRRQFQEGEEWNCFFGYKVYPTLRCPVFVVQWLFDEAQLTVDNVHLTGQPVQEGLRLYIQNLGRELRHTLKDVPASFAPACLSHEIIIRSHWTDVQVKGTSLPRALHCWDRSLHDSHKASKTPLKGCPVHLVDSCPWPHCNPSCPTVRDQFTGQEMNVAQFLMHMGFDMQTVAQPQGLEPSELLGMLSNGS
EXPERIMENTAL PROTOCOL: Binding assay (OPTS esterase substrate, fluorimetric)
Type: biochemical
STATED CONDITIONS: class symbols
Measured IC50 by item

Observe how each entry below is paired with its result.
{"COMPOUND": "O=C(O)c1cc2c(s1)-c1cc(F)cc(F)c1CC2", "SUBJECT OF TEST": "human notum pectinacetyltransferase (Homo sapiens, UniProt Q6P988)", "IC50": "< 1000 nM"}
{"COMPOUND": "CC1Cc2ccccc2-c2sc(C(=O)O)cc21 (centres unmarked)", "SUBJECT OF TEST": "human notum pectinacetyltransferase (Homo sapiens, UniProt Q6P988)", "IC50": "< 2000 nM"}
{"COMPOUND": "CC1(C)Cc2cc(C(=O)O)sc2-c2c(F)ccc(F)c21", "SUBJECT OF TEST": "human notum pectinacetyltransferase (Homo sapiens, UniProt Q6P988)", "IC50": "< 1000 nM"}
{"COMPOUND": "NC(=O)c1cc2c(s1)-c1cccc(Cl)c1CC2", "SUBJECT OF TEST": "human notum pectinacetyltransferase (Homo sapiens, UniProt Q6P988)", "IC50": "< 1000 nM"}

Q: Entry NC(=O)c1cc2c(s1)-c1cc(Cl)ccc1OC2 : reported IC50 = ?
A: < 1000 nM

Q: Give its IC50 value. Item: CC(C)(C#N)NC(=O)c1cc2c(s1)-c1ccccc1CC2
A: < 1000 nM
